Give measured Ki for each item. Keep answers brief.
target: α7 nAChR (Rattus norvegicus)
Sequence (Q05941 23-502): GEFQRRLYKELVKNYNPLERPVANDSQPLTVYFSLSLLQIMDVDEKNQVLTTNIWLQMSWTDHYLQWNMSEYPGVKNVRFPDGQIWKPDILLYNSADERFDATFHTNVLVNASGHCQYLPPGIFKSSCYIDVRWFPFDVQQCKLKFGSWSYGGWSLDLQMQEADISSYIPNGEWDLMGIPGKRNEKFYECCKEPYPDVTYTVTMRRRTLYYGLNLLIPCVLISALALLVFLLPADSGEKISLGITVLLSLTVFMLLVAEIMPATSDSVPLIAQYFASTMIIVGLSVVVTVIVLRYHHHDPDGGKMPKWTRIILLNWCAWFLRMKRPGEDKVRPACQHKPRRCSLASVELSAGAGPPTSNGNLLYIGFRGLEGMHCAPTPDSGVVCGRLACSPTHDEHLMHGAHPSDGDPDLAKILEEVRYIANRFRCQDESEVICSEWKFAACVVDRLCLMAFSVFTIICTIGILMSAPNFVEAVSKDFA
Counter-ions that a name gives are not always drawn.

What value of measured Ki is listed for O=C(N[C@H]1CN2CCC1CC2)c1ccc(-c2ccccc2O)s1 [Example 41, Hydrochloride] ?
3 to 4 nM

What value of measured Ki is listed for COc1ccc(C(=O)N[C@H]2CN3CCC2CC3)s1 [Example 19, Hydrochloride] ?
2 to 4 nM
